- protocol_description: in vitro
- Assay type: in vitro ADME
- run_conditions: human, Caco-2
Mark 1 (yes) for Papp B→A at 90 min under 0.9 ×10⁻⁶ cm/s, 0 (no) if at or over.

Worked examples, 5 compounds total:
[[record]]
chemical_smiles = "N#C[C@@]1(c2ccc3c(NC(=O)[C@@H](N)Cc4ccc(F)cc4)ncnn23)O[C@H](COC(=O)CC2(N)CCCCC2)[C@@H](O)[C@H]1O"
discrete_label = "0 (no)"

[[record]]
chemical_smiles = "N#C[C@@]1(c2ccc3c(N)ncnn23)O[C@H](COC(=O)CC2(N)CCCCC2)[C@@H](OC(=O)CC2CCCCC2)[C@H]1O"
discrete_label = "0 (no)"

[[record]]
chemical_smiles = "N#C[C@@]1(c2ccc3c(NC(=O)[C@@H](N)Cc4ccc(F)cc4)ncnn23)O[C@H](COC(=O)CC2CCCCC2)[C@@H](O)[C@H]1O"
discrete_label = "0 (no)"

[[record]]
chemical_smiles = "CC(C)C(=O)OC[C@H]1O[C@@](C#N)(c2ccc3c(NC(=O)c4ccccc4)ncnn23)[C@H](O)[C@@H]1O"
discrete_label = "0 (no)"

[[record]]
chemical_smiles = "N#C[C@@]1(c2ccc3c(N)ncnn23)O[C@H](COC(=O)CC2CCCCCC2)[C@@H](O)[C@H]1O"
discrete_label = "0 (no)"


### Prompt Consider N#C[C@@]1(c2ccc3c(N)ncnn23)O[C@H](COC(=O)[C@@H](N)Cc2ccccc2)[C@@H](OC(=O)CC2CCCCC2)[C@H]1O . Does its Papp B→A at 90 min lie strictly below 0.9 ×10⁻⁶ cm/s?
### Response 1 (yes)

### Prompt Criterion: Papp B→A at 90 min strictly below 0.9 ×10⁻⁶ cm/s. Is it met by CC(C)[C@H](N)C(=O)OC[C@H]1O[C@@](C#N)(c2ccc3c(N)ncnn23)[C@H](O)[C@@H]1OC(=O)CC1CCCCC1 ?
### Response 0 (no)

### Prompt # TODO verify Papp B→A at 90 min < 0.9 ×10⁻⁶ cm/s strictly for this compound: N#C[C@@]1(c2ccc3c(NC(=O)c4ccccc4)ncnn23)O[C@H](CO)[C@@H](OC(=O)CC2CCCCC2)[C@H]1O
### Response 1 (yes)

### Prompt Consider the compound CC(=O)OCOC(=O)Nc1ncnn2c([C@]3(C#N)O[C@H](COC(=O)CC4CCCCC4)[C@@H](OC(=O)[C@@H](N)C(C)C)[C@H]3O)ccc12 . Is its Papp B→A at 90 min strictly less than 0.9 ×10⁻⁶ cm/s?
### Response 1 (yes)

### Prompt Lab note: confirm whether the reported Papp B→A at 90 min for this compound is below 0.9 ×10⁻⁶ cm/s, equality not counting. compound: CC(C)(C(=O)OC[C@H]1O[C@@](C#N)(c2ccc3c(N)ncnn23)[C@H](O)[C@@H]1O)C1CCCCC1
### Response 0 (no)

### Prompt Determine whether this compound shows Papp B→A at 90 min lower than 0.9 ×10⁻⁶ cm/s (ties excluded): CC(C)C(=O)Nc1ncnn2c([C@]3(C#N)O[C@H](COC(=O)CC4CCCCC4)[C@@H](OC(=O)[C@@H](N)C(C)C)[C@H]3O)ccc12
### Response 0 (no)

* * *

- protocol_description: in vitro
- Format: in vitro ADME
- run_conditions: human, Caco-2
result_type: efflux ratio at 90 min
# output: bare number, no unit

# example entries with known answers
[[record]]
molecule = "CCC(=O)OC[C@H]1O[C@@](C#N)(c2ccc3c(N)ncnn23)[C@H](O)[C@@H]1OC(=O)[C@@H](N)C(C)C [Compound 67]"
reading = 0.33

[[record]]
molecule = "CC(C)CC(=O)OC[C@H]1O[C@@](C#N)(c2ccc3c(N)ncnn23)[C@H](O)[C@@H]1OC(=O)CC(C)C [Compound 17]"
reading = 1.4

[[record]]
molecule = "CCC(=O)OC[C@H]1O[C@@](C#N)(c2ccc3c(N)ncnn23)[C@H](O)[C@@H]1OCOC(=O)C(C)(C)C [Compound 72]"
reading = 0.55


Could you now consider this next molecule?
### Prompt Consider the molecule CC(=O)OC[C@H]1O[C@@](C#N)(c2ccc3c(N)ncnn23)[C@H](O)[C@@H]1O [Compound 13] and give its recorded efflux ratio at 90 min.
### Response 2.7

* * *

- protocol_description: in vitro
- Format: in vitro ADME
- run_conditions: human, Caco-2
Item-by-item account of efflux ratio at 90 min
Respond using a number only.

[[record]]
chemical_smiles = "N#C[C@@]1(c2ccc3c(N)ncnn23)O[C@H](COC(=O)CC2CCNCC2)[C@@H](O)[C@H]1O"
reading = 0.65


### Prompt Dear colleague, please send me the reported efflux ratio at 90 min for CCCCCOC(=O)Nc1ncnn2c([C@]3(C#N)O[C@H](CO)[C@@H](O)[C@H]3O)ccc12 when you can.
### Response 14

### Prompt In one line, give reported efflux ratio at 90 min of the entry N#C[C@@]1(c2ccc3c(N)ncnn23)O[C@H](COC(=O)CC2(N)CCCCC2)[C@@H](O)[C@H]1O .
### Response 67

### Prompt Given CC(C)C(=O)OC[C@H]1O[C@@](C#N)(c2ccc3c(N)ncnn23)[C@H](O)[C@@H]1O , respond with its efflux ratio at 90 min.
### Response 1

### Prompt Please report the measured efflux ratio at 90 min for N#C[C@@]1(c2ccc3c(N)ncnn23)O[C@H](COC(=O)CC2CCCCC2)[C@@H](O)[C@H]1O
### Response 1.6

### Prompt Supply efflux ratio at 90 min value. Item: CCCCOC(=O)Nc1ncnn2c([C@]3(C#N)O[C@H](COC(=O)C(C)(C)C4CCCCC4)[C@@H](O)[C@H]3O)ccc12
### Response 1.6

### Prompt Specify reported efflux ratio at 90 min for the compound shown: CC(C)(C)[C@H](N)C(=O)OC[C@H]1O[C@@](C#N)(c2ccc3c(N)ncnn23)[C@H](O)[C@@H]1OC(=O)CC1CCCCC1
### Response 1.3

### Prompt Read the entry CC(C)C(=O)OC[C@H]1O[C@@](C#N)(c2ccc3c(N)ncnn23)[C@H](O)[C@@H]1OC(=O)CC1CCCCC1 and write its reported efflux ratio at 90 min.
### Response 0.5

### Prompt Supply reported efflux ratio at 90 min belonging to this compound: N#C[C@@]1(c2ccc3c(NC(=O)[C@@H](N)Cc4ccc(F)cc4)ncnn23)O[C@H](COC(=O)CC2CCCCC2)[C@@H](O)[C@H]1O
### Response 12

### Prompt Identify the reported efflux ratio at 90 min for the following entry. CC(=O)Nc1ncnn2c([C@]3(C#N)O[C@H](COC(=O)[C@@H](N)C(C)(C)C)[C@@H](OC(=O)CC4CCCCC4)[C@H]3O)ccc12
### Response 1.2

### Prompt Identify efflux ratio at 90 min associated with the compound CC(C)[C@H](N)C(=O)O[C@H]1[C@@H](O)[C@](C#N)(c2ccc3c(NC(=O)OCOC(=O)C(C)(C)C)ncnn23)O[C@@H]1COC(=O)CC1CCCCC1
### Response 0.33

### Prompt Specify reported efflux ratio at 90 min for the compound shown: CC(C)[C@H](N)C(=O)OC[C@H]1O[C@@](C#N)(c2ccc3c(N)ncnn23)[C@H](O)[C@@H]1OC(=O)CC1CCCCC1
### Response 3

### Prompt Tell us which efflux ratio at 90 min value is on record for CC(C)(C)C(=O)OCOC(=O)Nc1ncnn2c([C@]3(C#N)O[C@H](COC(=O)[C@@H](N)C(C)(C)C)[C@@H](O)[C@H]3O)ccc12
### Response 19.2

### Prompt Provide measured efflux ratio at 90 min value, entry: CC(C)CC(=O)OC[C@H]1O[C@@](C#N)(c2ccc3c(NC(=O)[C@@H](N)Cc4ccc(F)cc4)ncnn23)[C@H](O)[C@@H]1O
### Response 175

### Prompt Entry CNc1nc(N)nc2c1ncn2[C@@H]1O[C@H](COC(C)=O)[C@@H](OC(=O)CC2CCCCC2)[C@@]1(C)F needs its efflux ratio at 90 min filled in; supply it.
### Response 0.18

### Prompt Could you please provide reported efflux ratio at 90 min for CC(C)[C@H](N)C(=O)O[C@H]1[C@@H](O)[C@](C#N)(c2ccc3c(NC(=O)c4ccccc4)ncnn23)O[C@@H]1CO ? Thanks!
### Response 22

### Prompt Identify the reported efflux ratio at 90 min for the following entry. CC(C)[C@H](N)C(=O)OC[C@H]1O[C@@](C#N)(c2ccc3c(NC(=O)[C@@H](N)Cc4ccc(F)cc4)ncnn23)[C@H](O)[C@@H]1O
### Response 9.1

### Prompt Given CCCCC(=O)Nc1ncnn2c([C@]3(C#N)O[C@H](CO)[C@@H](O)[C@H]3O)ccc12 , respond with its efflux ratio at 90 min.
### Response 20

### Prompt Give the value of efflux ratio at 90 min reported for the following: C[C@@H](C(=O)OC[C@H]1O[C@@](C#N)(c2ccc3c(N)ncnn23)[C@H](O)[C@@H]1O)C1CCCCC1
### Response 1.6

### Prompt Specify measured efflux ratio at 90 min for CC(C)[C@H](N)C(=O)OC[C@H]1O[C@@](C#N)(c2ccc3c(NC(=O)c4ccccc4)ncnn23)[C@H](O)[C@@H]1O .
### Response 280

### Prompt Quote efflux ratio at 90 min reported for CCC(=O)O[C@H]1[C@@H](O)[C@](C#N)(c2ccc3c(NC(=O)OCOC(=O)C(C)(C)C)ncnn23)O[C@@H]1COC(=O)[C@@H](N)C(C)C please.
### Response 2.8

### Prompt Write down efflux ratio at 90 min measured for item CNc1nc(N)nc2c1ncn2[C@@H]1O[C@H](COC(=O)CC2CCCCC2)[C@@H](OC(=O)C(C)C)[C@@]1(C)F
### Response 0.34

### Prompt Indicate the recorded efflux ratio at 90 min value for this compound: CC(C)[C@H](N)C(=O)Nc1ncnn2c([C@]3(C#N)O[C@H](CO)[C@@H](OC(=O)[C@@H](N)C(C)C)[C@H]3O)ccc12
### Response 0.7

### Prompt Output measured efflux ratio at 90 min for this item: CCC(=O)Nc1nc(NC)c2ncn([C@@H]3O[C@H](COC(C)=O)[C@@H](O)[C@@]3(C)F)c2n1
### Response 13

### Prompt Answer with the recorded efflux ratio at 90 min for the compound listed here: COC1(CC(=O)OC[C@H]2O[C@@](C#N)(c3ccc4c(N)ncnn34)[C@H](O)[C@@H]2O)CCCCC1
### Response 2.4
